Consider the following compounds; for each one, report its IC50.
Target: PAR2 (HT-29 cells, trypsin activation) (Homo sapiens)
Construct: host or cells: HT-29 cells
Experiment: Ca FLIPR TETRA assay, ANTAGONIST mode, stimulation with 3.1 U/mL trypsin
Assay type: cell-based
Settings: HT-29 cells, antagonist mode, stimulation with 3.1 U/mL trypsin
Provide only the numeric value, understood in nM.

query: What IC50 appears in the records for this compound with PAR2 (HT-29 cells, trypsin activation) (Homo sapiens)? CC(C)(C)c1cc(-c2ccc(F)c(Cl)c2)nn2cc(C(=O)N3CCN(C(=O)[C@H]4CC[C@@H](C(=O)O)CC4)CC3(C)C)nc12
result: 0.3

query: Please provide the recorded IC50 for Cc1cc(C(=O)N2CCN(C(=O)c3cn4nc(-c5ccc(Cl)cc5)cc(C(C)(C)C)c4n3)C(C)(C)C2)[nH]n1 , tested on PAR2 (HT-29 cells, trypsin activation) (Homo sapiens).
result: 0.5

query: Lab note: need IC50 for CC(C)[C@@H](O)C(=O)N1CCN(C(=O)c2cn3nc(-c4ccc(F)cc4)cc(N4C[C@@H](C)O[C@@H](C)C4)c3n2)C(C)(C)C1 on PAR2 (HT-29 cells, trypsin activation) (Homo sapiens), anyone have it?
result: 38.7

query: Entry CC1(C)C(=O)NCCN1C(=O)c1cn2nc(-c3ccc(F)cc3)cc(-c3ccc(F)cc3)c2n1 , system PAR2 (HT-29 cells, trypsin activation) (Homo sapiens): what IC50 was measured?
result: 9.6

query: Could you share what IC50 was measured for Cc1cc(C(=O)N2CCN(C(=O)c3cn4nc(-c5ccc(F)cc5)cc(C(C)(C)F)c4n3)C(C)(C)C2)[nH]n1 , tested on PAR2 (HT-29 cells, trypsin activation) (Homo sapiens)?
result: 2.4

query: For PAR2 (HT-29 cells, trypsin activation) (Homo sapiens), provide IC50 of Cc1cccc(-c2cc(C(C)(C)C)c3nc(C(=O)N4CCN(C(=O)c5ccccn5)CC4(C)C)cn3n2)c1 please.
result: 6.5

---

Molecular target: PAR2 (HT-29 cells, trypsin activation) (Homo sapiens, UniProt P55085)
Construct: host or cells: HT-29 cells
Sequence (P55085 26-397): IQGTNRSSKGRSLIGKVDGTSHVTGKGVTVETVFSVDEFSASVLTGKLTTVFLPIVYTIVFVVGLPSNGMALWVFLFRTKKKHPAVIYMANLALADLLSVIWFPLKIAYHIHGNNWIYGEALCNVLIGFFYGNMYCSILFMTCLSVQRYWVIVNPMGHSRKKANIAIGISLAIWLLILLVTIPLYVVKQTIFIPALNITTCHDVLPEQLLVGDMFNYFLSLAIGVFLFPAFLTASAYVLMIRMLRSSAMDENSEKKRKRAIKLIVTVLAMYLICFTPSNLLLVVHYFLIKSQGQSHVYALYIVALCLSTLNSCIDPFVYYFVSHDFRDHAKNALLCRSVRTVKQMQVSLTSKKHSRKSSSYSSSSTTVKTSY
Experiment: Ca FLIPR TETRA assay, ANTAGONIST mode, stimulation with 3.1 U/mL trypsin
Format: cell-based
Conditions: HT-29 cells, antagonist mode, stimulation with 3.1 U/mL trypsin
measured-metric: IC50 (nM)
Only the number, expressed in nM, is required.

query: Fill blank: measured IC50 of the compound COC(=O)CC1(C)C(=O)NCCN1C(=O)c1cn2nc(-c3ccc(F)cc3)cc(C(C)(C)C)c2n1 (stereo not shown) is ____.
result: 170

query: IC50 for CC(C)(C)c1cc(C2CCC(F)(F)CC2)nn2cc(C(=O)N3CCN(C(=O)[C@H]4CC[C@H](C(=O)O)CC4)CC3(C)C)nc12 ?
result: 163

query: If you can, please state the reported IC50 value of CC(C)c1cc(-c2ccc(C(F)(F)F)cc2)nn2cc(C(=O)N3CCN(C(=O)[C@H]4C[C@](O)(C(F)(F)F)C4)CC3(C)C)nc12 .
result: 0.6

query: Can you look up the measured IC50 of Cc1nnc(C(=O)N2CCN(C(=O)c3cn4nc(-c5ccc(Cl)c(F)c5)cc(C(C)(C)C)c4n3)C(C)(C)C2)o1 for me?
result: 0.8

query: For the compound shown here, Cc1cccc(-c2cc(C(C)(C)C)c3nc(C(=O)N4CCN(C(=O)C5CC(C)(O)C5)CC4(C)C)cn3n2)c1 (stereo not shown) , give the reported IC50.
result: 1.7

query: Which IC50 value belongs to CC(C)c1cc(-c2ccc(C(F)(F)F)cc2)nn2cc(C(=O)N3CCN(C(=O)C(C)(C)O)CC3(C)C)nc12 ?
result: 18.2

query: Quick check: IC50 of Cc1cc(C(=O)N2CCN(C(=O)c3cn4nc(-c5ccc(C)c(F)c5)cc(C(C)C)c4n3)C(C)(C)C2)[nH]n1 ?
result: 0.6

query: Give the measured IC50 of Cc1nnc(C(=O)N2CCN(C(=O)c3cn4nc(-c5ccc(C(F)(F)F)cc5)cc(C(C)(C)C)c4n3)C(C)(C)C2)o1 .
result: 2.8

query: State the recorded IC50 for this entry: Cc1nc(C(=O)N2CCN(C(=O)c3cn4nc(-c5ccc(F)cc5)cc(C(C)(C)C)c4n3)C(C)(C)C2)nn1COP(=O)(O)O
result: 235

query: Could you share which IC50 value was measured for Cc1ccc(-c2cc(C(C)(C)C)c3nc(C(=O)N4CCN(C(=O)c5ccn[nH]5)CC4(C)C)cn3n2)cc1F ?
result: 1.2

query: Returns the measured IC50 for the input compound. Input: Cc1nnc(C(=O)N2CCN(C(=O)c3cn4nc(-c5ccc(F)c(C)c5)cc(C(C)C)c4n3)C(C)(C)C2)o1
result: 15.8

query: Please give the measured IC50 for this compound: CC(C)c1cc(-c2ccc(C(F)(F)F)cc2)nn2cc(C(=O)N3CCN(C(=O)c4nc[nH]n4)CC3(C)C)nc12
result: 4.6

query: So what's the measured IC50 for this one? CC(C)(C)c1cc(-c2ccc(C(F)F)cc2)nn2cc(C(=O)N3CCNC(=O)C3(C)C)nc12
result: 2.6

Just for reference, patent US20190119282A1 is where these values come from.
